- assay-comment: Saturation mutagenesis of SEQ ID NO:109: dicamba decarboxylation activity of point mutants (CO2 released), fold of backbone (Tables 7, 8, Megatable 1)
- study-conditions: decarboxylation activity (CO2 released) of point mutant vs unmutated backbone protein; backbone SEQ ID NO: 109
reported-property: Fold Activity
Remember to follow the number with its unit.

Query :: Supply measured Fold Activity of 136 (protein, Dicamba decarboxylase variant) MAQGKVALEEHFAIPETLQDSAGFVPGDYWKELQHRLLDIQDTRLKLMDAHGIETMILSLAAPAVQAIPDRRKAIEIARRANDFLAEECAKRPDRFLAFAALPLQDPDAATEELQRCVNTLGFVGALVNGFSVEGDGQTPLYYDLPQYRPFWGEVEKLDVPFYLHPRNPLPQDSRIYDGHPWLLGPTWAFAQETAVHALRLMASGLFDEHPRLNIILGHLGEGLPYMMYRIDHRIAWVHEPPRYPAKRRFMDYFNENFHITTSGNFRTQTLIDAILEIGADRILFSTDWPFENIDHAADWFNATSIAEADRVKIGRTNARRLFKLDGA in your reply.
Result :: 1.2 fold
